Give hERG current change (%, negative = inhibition) at 10uM for every item shown.
- targetOfAssay: human ether-à-go-go-related gene (hERG) potassium channel (human);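 note: peak tail current of the secondary pulse compared with the same well before compound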
- assayRemarks: primary screen, population patch clamp on CHO cells stably expressing hERG; higher = less effect of the substance
Among all 310,000 compounds or so, about 14,000 (4.5%) showed an effect of 50% or more. The effect is printed as a negative number. Shown is part of a subset that was picked to be rich in strong results.

Exam item: Return hERG current change (%, negative = inhibition) at 10uM measured with human ether-à-go-go-related gene (hERG) potassium channel (human) given this molecule: COc1ccc(C)cc1-n1c(SCC(=O)Nc2cccc(C(=O)O)c2)nc2ccccc2c1=O
Marked response: 12%

Exam item: Subsequent entry: COc1ccccc1/C(O)=C(\C#N)c1nc2ccccc2[nH]1
Marked response: 15%

Exam item: Could you do the same for COc1ccc(CNC(=O)COc2ccc([N+](=O)[O-])cc2)cc1 , please?
Marked response: -64.5%

Exam item: Now the same for COc1ccc(OC)c(C2CC(=O)c3c([nH]c(C(=O)OCC4CCCO4)c3C)C2)c1 (stereo not drawn)
Marked response: 3.54%

Exam item: Same lookup for CC1CC(C)CN(CCOc2ccc(Br)cc2)C1.O=C(O)C(=O)O (stereo not drawn) , please.
Marked response: -60.3%

Exam item: Note, next up: CCOC(=O)c1ccc(NC(=O)N(CC)CC)cc1
Marked response: 4.46%

Exam item: Further, for O=C(NCC(=O)N1CCC2(CC1)NCCc1[nH]cnc12)c1cccc(Cl)c1 ?
Marked response: 12.5%

Exam item: Cc1ccc(S(=O)(=O)c2nc(Nc3nccs3)sc2Cl)cc1 ?
Marked response: 11.6%

Exam item: COc1ccccc1N(CC(=O)NCc1ccccc1)C(=O)CCC(=O)Nc1cc(C)ccn1 , same question.
Marked response: -9.35%

Exam item: Now the molecule CCCOc1ccc(OCCN2CCCC(C)C2)cc1.O=C(O)C(=O)O (stereo not drawn)
Marked response: -52.2%

Exam item: What do we get for O=C(O)c1ccc2c(c1Sc1ccccc1)C(=O)c1ccccc1C2=O ?
Marked response: -4.82%

Exam item: What do you have for O=C(CNC(=O)c1ccc(Oc2ccccc2)cc1)OC1CCCCC1=O (stereo not drawn) ?
Marked response: -72.2%

====

- targetOfAssay: human ether-à-go-go-related gene (hERG) potassium channel (human, UniProt Q12809);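 note: peak tail current of the secondary pulse compared with the same well before compound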
- Sequence (Q12809 whole entry, looked up): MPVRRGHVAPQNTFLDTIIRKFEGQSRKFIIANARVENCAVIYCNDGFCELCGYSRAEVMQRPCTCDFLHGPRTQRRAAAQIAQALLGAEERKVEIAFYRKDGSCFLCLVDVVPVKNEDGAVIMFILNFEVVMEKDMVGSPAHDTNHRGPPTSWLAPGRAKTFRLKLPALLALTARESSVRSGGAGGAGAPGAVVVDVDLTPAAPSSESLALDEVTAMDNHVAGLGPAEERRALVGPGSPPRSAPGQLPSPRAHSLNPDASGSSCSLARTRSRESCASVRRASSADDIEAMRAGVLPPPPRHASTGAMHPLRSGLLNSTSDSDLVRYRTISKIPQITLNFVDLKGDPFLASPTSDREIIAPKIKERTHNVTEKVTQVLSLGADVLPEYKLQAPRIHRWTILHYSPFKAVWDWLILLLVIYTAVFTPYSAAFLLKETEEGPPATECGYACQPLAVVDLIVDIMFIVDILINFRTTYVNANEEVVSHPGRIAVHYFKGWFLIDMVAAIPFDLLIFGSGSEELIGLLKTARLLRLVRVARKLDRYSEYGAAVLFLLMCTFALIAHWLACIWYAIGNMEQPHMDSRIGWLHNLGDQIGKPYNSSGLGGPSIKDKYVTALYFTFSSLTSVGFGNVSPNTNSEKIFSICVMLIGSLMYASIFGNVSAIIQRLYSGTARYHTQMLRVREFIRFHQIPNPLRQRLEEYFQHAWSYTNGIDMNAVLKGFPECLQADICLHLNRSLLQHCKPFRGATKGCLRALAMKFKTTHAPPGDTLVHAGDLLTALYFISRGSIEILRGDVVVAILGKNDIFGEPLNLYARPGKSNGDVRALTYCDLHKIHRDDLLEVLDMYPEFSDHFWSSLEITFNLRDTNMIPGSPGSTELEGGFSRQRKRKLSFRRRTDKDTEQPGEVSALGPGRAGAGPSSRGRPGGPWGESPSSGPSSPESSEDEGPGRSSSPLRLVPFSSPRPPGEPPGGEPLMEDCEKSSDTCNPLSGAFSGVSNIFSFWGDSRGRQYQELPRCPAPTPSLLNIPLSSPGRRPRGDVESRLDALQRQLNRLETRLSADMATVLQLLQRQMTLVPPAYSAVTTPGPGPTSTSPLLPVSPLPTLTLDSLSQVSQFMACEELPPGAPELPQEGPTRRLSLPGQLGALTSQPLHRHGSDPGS
- assayRemarks: primary screen, population patch clamp on CHO cells stably expressing hERG; higher = less effect of the substance
Out of some 310,000 compounds screened, about 14,000 (4.5%) showed an effect of 50% or more. The effect is printed as a negative number. Only a selection was taken, and strong results are over-represented in it overall.
Exercise: state measured hERG current change (%, negative = inhibition) at 10uM for each of the compounds provided.
Entry rule: numbers only, all in %.

Exam item: Looking for the measured hERG current change (%, negative = inhibition) at 10uM of CCOC(=O)c1ccc(S(=O)(=O)N2CCN(c3ccccn3)CC2)cc1 , can you help?
Marked response: 8.95

Exam item: Lookup CC(C)(C)c1ccc(-c2conc2N)cc1
Marked response: 5.58

Exam item: One more compound: CCC(OC(=O)c1ccco1)C(=O)NCc1ccc(OC)cc1 (stereo not shown)
Marked response: -8.67

Exam item: And then N#CC(C#N)=Cc1cccn1-c1ccc(C(=O)O)cc1 , what is it?
Marked response: 15.5

Exam item: And COc1ccc(-n2c(=O)[nH]c3cc(C(=O)NCCc4ccc(OC)c(OC)c4)ccc3c2=O)c(OC)c1 ?
Marked response: 18.5

Exam item: Same lookup for CCc1ccc(NC(=O)c2ccc(C3SCC(=O)N3CCc3ccccc3)cc2)cc1 (stereo not shown) , please.
Marked response: 6.22

Exam item: Item: Cc1ccc(C(=O)NCCN(C)C)cc1C
Marked response: 7.22

Exam item: Proceed to CN(c1ccccc1)c1ncccn1
Marked response: 18

Exam item: // repeat for COCCNC(=O)Cc1cn(C)c2ccccc12 and report
Marked response: 4.15

Exam item: Okay, and [Cl-].[NH3+]CCCn1c(C(=O)c2ccc(Cl)cc2)c2ccc(C(F)(F)F)cc2[n+]1[O-] ?
Marked response: -79.2

Exam item: Please do the same for COc1ccc(N2C(=S)N(C(=O)c3ccccc3)C(=Nc3ccccc3)C2=Nc2ccccc2)cc1 as well.
Marked response: -3.16

Exam item: And for CCOC(=O)c1cn(CC(=O)Nc2ccc(OC)cc2OC)nn1 ?
Marked response: 9.07

Exam item: Okay, and CCOC(=O)N1CCN(C(=O)c2ccc3c(=O)n(Cc4ccc(Cl)cc4)c(=S)[nH]c3c2)CC1 ?
Marked response: 4.36

Exam item: What do we get for CCc1ccc(-n2cc(-c3ccc(F)cc3)[n+]3c2SCCC3)cc1.[Br-] ?
Marked response: -71.7

Exam item: Query CC(C)CC(=O)Nc1ccc(Cc2ccncc2)cc1 next
Marked response: 10.1

Exam item: Repeat for the following compound: O=C(Nc1cccnc1)c1cc(F)c(F)cc1Cl
Marked response: 19.7

Exam item: Item: CC(C)Cc1ccc(C(=O)Nc2ccc(Cc3ccncc3)cc2)o1
Marked response: -57.6

Exam item: Next compound up: COc1ccc(-c2cn(-c3ccccc3)c3[n+]2CCS3)cc1
Marked response: -38

Exam item: Now consider Cc1c(Cl)cccc1N=C1SCCN1C(=O)CN1C(=O)NC2(CCCC2)C1=O .
Marked response: -16.5

Exam item: And then O=C(/C=C/c1ccc2c(c1)OCO2)Nc1nc(-c2ccc(F)cc2F)cs1 , what is it?
Marked response: 9.08

Exam item: # iterate: COc1ccc2c(C(=O)c3ccc(C)cc3)n(CCC(N)=O)[n+]([O-])c2c1
Marked response: -6.56

Exam item: Param item: Fc1ccc(-c2cn(-c3ccccc3)c3[n+]2CCS3)cc1.O.[Br-]
Marked response: -45.3

Exam item: And O=C(Nc1ccc(S(=O)(=O)N2CCOCC2)cc1)c1ccccc1F ?
Marked response: 6.32

Exam item: Record: COc1ccc(-c2cn(-c3ccc(Br)cc3)c3[n+]2CCS3)cc1.[Br-]
Marked response: -66.7

Exam item: And what about the compound O=C(CCCn1c(=O)c2sccc2n(CC(=O)NCc2ccco2)c1=O)NCc1ccco1 ?
Marked response: -6.69

Exam item: Cool, now Cc1ccc(C(=O)c2c3ccc(C(F)(F)F)cc3[n+]([O-])n2CCC(N)=O)cc1
Marked response: -66.2

Exam item: Consider next the compound Fc1ccc(-c2n[nH]c(=S)n2Cc2ccccc2)cc1 in the same way.
Marked response: 7.48

Exam item: Next compound: CCOc1cc(C(=O)NCc2ccc(F)cc2)ccc1OCC(=O)N1CCCCC1
Marked response: -37.5

Exam item: Follow-up entry: CC1(C)CC(=O)C=C(c2ccc3[nH]ccc3c2)C1
Marked response: 1.61

Exam item: # repeat for COC(=O)c1cccc(S(=O)(=O)N2CCC(C)CC2)c1
Marked response: -4.23

Exam item: And then CCOC(=O)N1CCN(Cc2nnc(-c3ccccc3Cl)o2)CC1.Cl , what is it?
Marked response: 11.4

All figures here come from paper PMC4336329.
